# measurement.target: cathepsin B (Homo sapiens, UniProt P07858)
# assay.remarks: Inhibitory activity assay against cathepsin B (enzyme assay)
# Format: biochemical
# measurement.context: Z-Arg-Arg-AMC 40 μM, enzyme 1 nM, pH 6.0, 90 minutes
Please respond with reported IC50 for every item in the list.

Answered examples (4):
{"columns": ["compound", "IC50"],
 "data": [
  ["N#Cc1nccc(C2(NC(=O)OCCc3ccccc3)CCCC2)n1 [Example 4]", "> 10000 nM"],
  ["N#Cc1nccc(C2(NC(=O)Nc3cc(C(F)(F)F)cc(C(F)(F)F)c3)CCCCC2)n1 [Example 95]", "> 10000 nM"],
  ["N#Cc1nccc(C2(NC(=O)NCc3ccccc3C(F)(F)F)CCCC2)n1 [Example 56]", "> 10000 nM"],
  ["CC(C)N1CCN(c2ccc(-c3ccc(NC(=O)NC4(c5ccnc(C#N)n5)CCCCC4)cc3F)cc2)CC1 [Example 166]", "2410 nM"]
]}

Dear colleague, could you please provide IC50 for the compounds listed below?
1. N#Cc1nccc(C2(NC(=O)Nc3ccc(Br)cc3F)CCCCC2)n1 [Example 134]
2. CS(=O)(=O)c1ccc(-c2ccc(NC(=O)NC3(c4ccnc(C#N)n4)CCCCC3)cc2)cc1F [Example 170]
3. N#Cc1nccc(C2(NC(=O)OCc3ccccc3Cl)CCCCC2)n1 [Example 28]
4. N#Cc1nccc(C2(NC(=O)Nc3ccc(-c4ccc(F)nc4)cc3)CCCCC2)n1 [Example 125]
5. N#Cc1nccc(C2(NC(=O)Nc3ccc(-c4cccnc4)cc3)CCCCC2)n1 [Example 128]
6. Cc1ccc(CNC(=O)NC2(c3ccnc(C#N)n3)CCCC2)cc1 [Example 48]
7. N#Cc1nccc(C2(NC(=O)Nc3ccc(C#Cc4ccc(CO)cc4)cc3)CCCCC2)n1 [Example 183]

## Result
1. > 10000 nM
2. > 10000 nM
3. > 10000 nM
4. > 10000 nM
5. > 10000 nM
6. > 10000 nM
7. > 10000 nM

I would be grateful if you could provide IC50 for each of the following entries.
1. N#Cc1nccc(C2(NC(=O)Nc3ccccc3C(F)(F)F)CCCCC2)n1 [Example 92]
2. N#Cc1nccc(C2(NC(=O)Nc3ccc(F)c(C(F)(F)F)c3)CCOCC2)n1 [Example 85]
3. N#Cc1nccc(C2(NC(=O)OCc3ccccc3F)CCCCC2)n1 [Example 18]
4. Cc1ccccc1CNC(=O)NC1(c2ccnc(C#N)n2)CCCC1 [Example 46]
5. CNCCOc1ccc(-c2ccc(NC(=O)NC3(c4ccnc(C#N)n4)CCCCC3)cc2)cc1 [Example 191]
6. N#Cc1nccc(C2(NC(=O)Nc3ccc(-c4ccc(C(=O)N5CCCC5)c(Cl)c4)cc3)CCCCC2)n1 [Example 150]
7. N#Cc1nccc(C2(NC(=O)Nc3cc(C(F)(F)F)c(F)cc3F)CCCCC2)n1 [Example 106]

## Result
["> 10000 nM", "> 10000 nM", "> 10000 nM", "> 10000 nM", "4760 nM", "> 10000 nM", "> 10000 nM"]

Report IC50 for every entry below.
1. N#Cc1nccc(C2(NC(=O)Nc3ccc(-c4ccc(C(F)(F)F)cc4)cc3)CCCCC2)n1 [Example 114]
2. N#Cc1nccc(C2(NC(=O)Nc3cc(C(F)(F)F)ccc3CO)CCCCC2)n1 [Example 108]

## Result
1. > 10000 nM
2. > 10000 nM

Go through the items and report each one's IC50.
1. CS(=O)(=O)c1ccc(-c2ccc(NC(=O)NC3(c4ccnc(C#N)n4)CCCCC3)cc2C(F)(F)F)cc1 [Example 162]
2. Cn1cc(-c2ccc(NC(=O)NC3(c4ccnc(C#N)n4)CCCCC3)cc2)cn1 [Example 120]
3. N#Cc1nccc(C2(NC(=O)Nc3ccc(-c4cccc(F)c4)cc3)CCCCC2)n1 [Example 123]
4. CS(=O)(=O)c1ccc(-c2ccc(NC(=O)NC3(c4ccnc(C#N)n4)CCCCC3)cc2)cc1 [Example 116]
5. N#Cc1nccc(C2(NC(=O)Nc3ccc4c(c3)OCO4)CCCC2)n1 [Example 78]
6. N#Cc1nccc(C2(NC(=O)Nc3cc(C(F)(F)F)ccc3C(F)(F)F)CCCCC2)n1 [Example 103]
7. COc1ccc(-c2ccc(NC(=O)NC3(c4ccnc(C#N)n4)CCCCC3)cc2)cn1 [Example 127]
8. N#Cc1nccc(C2(NC(=O)Nc3ccc(-c4ccc(C(=O)NCCn5ccnc5)cc4)c(F)c3)CCCCC2)n1 [Example 186]

## Result
> 10000 nM
9280 nM
> 10000 nM
> 10000 nM
> 10000 nM
> 10000 nM
> 10000 nM
2740 nM

The measured values listed here are drawn from patent US11299478B2.
